# System: Escherichia coli ATCC 25922
# protocol details: microbe, parasite or virus in culture
# Assay type: cell-based
# run conditions: broth microdilution (CLSI), Mueller-Hinton broth, 18 h at 37 °C, A625nm; peptides n = 8
Where no end group is shown, it is not given here.
measurement kind: Minimal Inhibitory Concentration, E. coli

Minimal Inhibitory Concentration, E. coli for GILKTIKSIASKLKRKAK [P18K] is >50 µg/mL

Minimal Inhibitory Concentration, E. coli for FWGLKGLKKFSKKL [Pin2[14]] is >50 µg/mL

Minimal Inhibitory Concentration, E. coli for GILKTIKSIASKVANTVQKLKRKAKNAV [FA1] is 12.5 µg/mL

Minimal Inhibitory Concentration, E. coli for FWGALAKGALKLIGSLFSSFSKKD [Pin2[G]] is 50 µg/mL
